Molecular target: T1, filamin A immunoglobulin repeat 21 (FLNa-Ig21) (human, UniProt P21333 2236-2330)
T1 sequence: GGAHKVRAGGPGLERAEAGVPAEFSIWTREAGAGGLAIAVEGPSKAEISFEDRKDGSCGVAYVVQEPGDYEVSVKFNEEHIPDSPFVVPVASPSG
Test: SPR
value-kind: Kd

Data request: GET /values?readout=Kd&item= KLLITIHDRKEFAKFEEERARAKW (peptide, UniProt P05106 742-765, looked up) [integrin β3 membrane-proximal fragment β3-N (K716-W739)]
Data returned: ~223 µM
